Documented AC50 across a set of compounds
# target or test system: Pyruvate kinase PKLR (Homo sapiens, UniProt P30613, R532W)
# Sequence (P30613 whole entry R532W): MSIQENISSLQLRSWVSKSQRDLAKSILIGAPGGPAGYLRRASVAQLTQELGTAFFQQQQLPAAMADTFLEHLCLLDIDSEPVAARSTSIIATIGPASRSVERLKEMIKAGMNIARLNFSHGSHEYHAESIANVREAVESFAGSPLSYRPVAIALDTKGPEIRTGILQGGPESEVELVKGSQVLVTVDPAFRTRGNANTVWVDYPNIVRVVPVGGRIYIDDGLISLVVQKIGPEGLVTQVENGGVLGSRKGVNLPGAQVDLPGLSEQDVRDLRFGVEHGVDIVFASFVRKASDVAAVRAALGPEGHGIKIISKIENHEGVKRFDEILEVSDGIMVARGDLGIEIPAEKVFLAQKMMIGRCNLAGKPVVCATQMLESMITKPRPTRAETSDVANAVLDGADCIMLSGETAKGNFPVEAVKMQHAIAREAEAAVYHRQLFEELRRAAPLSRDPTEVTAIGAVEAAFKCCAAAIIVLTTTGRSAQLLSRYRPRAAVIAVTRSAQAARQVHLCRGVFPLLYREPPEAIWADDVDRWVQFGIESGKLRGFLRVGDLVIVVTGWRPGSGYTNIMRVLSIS
# method notes: Activation of PKR R532W mutant (unknown origin) incubated for 60 mins in presence of ADP, PEP and NADH by Spectraax microplate reader based assay

Use the examples below as a reference point.
>>> df
                                smiles_code  measured_endpoint      result
0  O=C(c1ccc(NS(=O)(=O)c2cccc3[nH]cnc23)cc1)N1CCC(O)(c2ccccc2Cl)CC1               AC50   ≥ 1010 nM
1  CC(F)(F)CCC1(O)CCN(C(=O)c2ccc(NS(=O)(=O)c3cccc4scnc34)cc2OC(F)F)CC1               AC50    < 100 nM
2  O=C(c1ccc(NS(=O)(=O)c2cccc3cccnc23)cc1)N1CCC(O)(c2cnsc2)CC1               AC50    < 100 nM
3  CC(C)CC1(O)CCN(C(=O)c2ccc(NS(=O)(=O)c3cccc4cccnc34)cc2)CC1               AC50    < 100 nM
4  O=C(c1ccc(NS(=O)(=O)c2cccc3cccnc23)c(F)c1)N1CCC(O)(c2ccccc2Cl)CC1               AC50    < 100 nM
5  O=C(c1ccc(NS(=O)(=O)c2cccc3nccnc23)cc1)N1CCC(O)(Cc2ccccc2C(F)(F)F)CC1               AC50    < 100 nM
6  CC(C)CC1(O)CCN(C(=O)c2ccc(NS(=O)(=O)Cc3ccccn3)cc2)CC1               AC50  > 10000 nM
7  CC(C)CC1(CO)CCN(C(=O)c2ccc(NS(=O)(=O)c3cccc4cccnc34)cc2)CC1               AC50    < 100 nM

Enquiry: Query: AC50; subject: CC(C)CC1(O)CCN(C(=O)c2ccc(NS(=O)(=O)c3cncc4cccnc34)cc2)CC1
Return: < 100 nM

Enquiry: What do you get for CC(C)(C)C1(O)CCN(C(=O)c2ccc(NS(=O)(=O)c3cccc4cccnc34)cc2)CC1 ?
Return: < 100 nM

Enquiry: What do you get for O=C(c1ccc(NS(=O)(=O)c2ccccc2Cl)cc1)N1CCC(O)(Cc2ccccc2)CC1 ?
Return: ≤ 1000 nM

Enquiry: What do you get for CC(C)CC1(O)CCN(C(=O)c2ccc(NS(=O)(=O)c3cccc4nc(N)cnc34)cc2)CC1 ?
Return: < 100 nM

Enquiry: What do you get for CC(C)CC1(O)CCN(C(=O)c2ccc(NS(=O)(=O)c3cccc4c(O)ncnc34)cc2)CC1 ?
Return: < 100 nM

Enquiry: What do you get for O=C(c1ccc(NS(=O)(=O)c2cccc3cccnc23)cc1)N1CCC(O)(Cc2cccc(F)c2F)CC1 ?
Return: < 100 nM

Enquiry: What do you get for CC(C)(C)CC1(O)CCN(C(=O)c2ccc(NS(=O)(=O)c3cccc4cccnc34)cc2)CC1 ?
Return: < 100 nM

Enquiry: What do you get for O=C(c1ccc(NS(=O)(=O)c2cccc3scnc23)cc1)N1CCC(O)(/C=C/CC(F)(F)F)CC1 ?
Return: < 100 nM

Enquiry: What do you get for O=C(c1ccc(NS(=O)(=O)c2cccc3cccnc23)cc1)N1CCC(O)(c2ccc(F)c(Br)n2)CC1 ?
Return: < 100 nM

Enquiry: What do you get for O=C(c1ccc(NS(=O)(=O)c2ccc(F)c3cccnc23)cc1)N1CCC(O)(Cc2ccccc2F)CC1 ?
Return: < 100 nM
